Source listed as PubChem BioAssay.

assay: compounds altering circadian rhythm period length – cell-based, LOPAC library, luminescence reporter (AID 2774); conditions: circadian reporter cells, at 7 µM, actives lie on both sides;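 also: values are relative to mean of DMSO wells on each plate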
Activity calls are given as the source filed them. No rule for the calls is given here.
Provide the recorded period change for the entries that follow.

CCCn1c(=O)c2[nH]c(-c3ccc(OCC(=O)Nc4ccc(C#N)cc4)cc3)nc2n(CCC)c1=O | 0.13 h (inactive)
CN1C2CCC1CC(OC(=O)C(O)c1ccccc1)C2 (stereo unspecified) | 0.16 h (inactive)

Provide period change values for the following items, in order.
1. CCNC(=O)C1OC(n2cnc3c(NCc4ccccc4)ncnc32)C(O)C1O (stereo unspecified)
2. CCN(CC)C(C)C(=O)N1c2ccccc2Sc2ccccc21 (stereo unspecified)
3. NO
4. COc1cc(C(O)CO)ccc1O (stereo unspecified) (tested in a mixture with another compound)
5. Cn1c(=O)c2c(nc(/C=C/c3cccc(Cl)c3)n2C)n(C)c1=O
6. Cc1cc(C)c(NC(=O)C[C@H](CC(=O)O)c2cccc3ccccc23)c(C(=O)N2CCC3(CCCC3)CC2)c1
7. CN(C)C(N)=NCCC[C@H](N)C(=O)O
8. CCCCCCCCCCCCCCSCC(=O)O

stdout:
0.1 h (inactive)
0.095 h (inactive)
-0.195 h (inactive)
0.16 h (inactive)
0.15 h (inactive)
0.275 h (inactive)
-0.14 h (inactive)
-0.08 h (inactive)

Provide period change values for the following items, in order.
1. Nc1ncnc2c1ncn2[C@@H]1O[C@H](CO)[C@H](O)C1O (stereo partly specified)
2. [Li+]
3. Cc1cccc(C2CN(C)CCc3c2cc(O)c(O)c3Cl)c1 (stereo unspecified)
4. CC(N)=O
5. O=c1[nH]ccc2c(O)cccc12
6. NCCCCNS(=O)(=O)c1cccc2c(Cl)cccc12
7. NC(N)=N[C@@H](CCC(=O)O)C(=O)O
8. COc1cc(C(O)CO)ccc1OS(=O)(=O)O (stereo unspecified)

stdout:
0.045 h (inactive)
-0.09 h (inactive)
0.11 h (inactive)
-0.19 h (inactive)
0.03 h (inactive)
0.09 h (inactive)
0.01 h (inactive)
-0.25 h (inactive)

Provide period change values for the following items, in order.
1. COc1cc(OC)c(/C=C2/C(=O)Nc3ccccc32)c(OC)c1
2. Fc1ccc(CN(C2=NCCN2)c2c(Cl)cccc2Cl)cc1
3. CCCC(=O)NCCc1c2n(c3ccc(OC)cc13)Cc1ccccc1-2

stdout:
-0.54 h (inactive)
-0.015 h (inactive)
0.125 h (inactive)
